tested on: PPARg:RXRa 30nM:10nM, anti-RXR (NR concentration 30 nM, RXRa partner concentration 10 nM); test: PBM binding z-score (relative to random genomic background probes); higher = stronger binding; sequences stand for … in GC…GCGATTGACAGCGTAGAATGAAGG
Below: a set of entries, each annotated with reported PBM binding z-score.
The reply should be a number, written without any unit.

Qu. For the sequence shown here, AGAATGGGGTTACCAAAGATCAGGGAAACGCTTG , give the reported PBM binding z-score.
Ans. 1.72

Qu. For the sequence shown here, CCTACTGGACCAAGGTCATTGATCAGTCAAAGCA , give the reported PBM binding z-score.
Ans. 0.593

Qu. For the sequence shown here, CAAACAAGGTCACCGGAAGGTCAAAGTCCGCATG , give the reported PBM binding z-score.
Ans. 4.78

Qu. For the sequence shown here, ACTCGGAGGTCAAAGGTCAGAGCTACGCCAGTGA , give the reported PBM binding z-score.
Ans. 9.38

Qu. For the sequence shown here, TCTAGTAGGTCAAAGGTCACACACTCGAAATGCG , give the reported PBM binding z-score.
Ans. 13

Qu. For the sequence shown here, CGTCCAAGGTCAAAGGTCATTGAAGAGATGACGG , give the reported PBM binding z-score.
Ans. 9.22

New cases:
Qu. For the sequence shown here, CGAACTAGGTCAAGGCCAGTGAATCTCCGCACGC , give the reported PBM binding z-score.
Ans. 3.87

Qu. For the sequence shown here, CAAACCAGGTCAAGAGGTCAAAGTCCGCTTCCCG , give the reported PBM binding z-score.
Ans. 5.51

Qu. For the sequence shown here, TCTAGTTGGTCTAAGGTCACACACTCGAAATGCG , give the reported PBM binding z-score.
Ans. 5.71

Qu. For the sequence shown here, CGAACTAGGTCACCCAGGACAGTGAATACATTGA , give the reported PBM binding z-score.
Ans. 4.23

Qu. For the sequence shown here, ACGCGGAGGACAAAGGTCAGAGCTACGCCAGTGA , give the reported PBM binding z-score.
Ans. 4.31

---

Below: a set of entries, each annotated with reported PBM binding z-score.
system: VDR:RXRa (NR concentration 270 nM, RXRa partner concentration 90 nM); assay: PBM binding z-score (relative to random genomic background probes); higher = stronger binding; sequences stand for … in GC…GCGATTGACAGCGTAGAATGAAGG
The reply should be a number, written without any unit.

Sample answers from the record:
Qu. For the sequence shown here, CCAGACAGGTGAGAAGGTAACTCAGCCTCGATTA , give the reported PBM binding z-score.
Ans. 0.116

Qu. For the sequence shown here, CGTCCAAGGTCAATGCTAGATCAGTGAAAGCATT , give the reported PBM binding z-score.
Ans. 3.51

Qu. For the sequence shown here, TATAAAGGGTCAAAGGCCAGAGTACGAATGTCGA , give the reported PBM binding z-score.
Ans. 4.86

New cases:
Qu. For the sequence shown here, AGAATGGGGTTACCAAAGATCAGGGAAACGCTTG , give the reported PBM binding z-score.
Ans. 2.66

Qu. For the sequence shown here, CGAACGAGGTCATTGACAGGACAGTGAATAGTAA , give the reported PBM binding z-score.
Ans. 5.64

Qu. For the sequence shown here, CGTCTAAGGTCATAGGAGGTCAGTGAAGACAGAT , give the reported PBM binding z-score.
Ans. 6.86

Qu. For the sequence shown here, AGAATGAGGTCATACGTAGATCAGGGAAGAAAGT , give the reported PBM binding z-score.
Ans. 5.41

Qu. For the sequence shown here, TCTAGTTGGTCACGGAGGACACACACGACGGGTA , give the reported PBM binding z-score.
Ans. 2.67

---

Below: a set of entries, each annotated with reported PBM binding z-score.
tested on: RARg homodimer (NR concentration 270 nM); assay: PBM binding z-score (relative to random genomic background probes); higher = stronger binding; sequences stand for … in GC…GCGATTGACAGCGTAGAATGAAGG
The reply should be a number, written without any unit.

Sample answers from the record:
Qu. For the sequence shown here, CATACAGGGTCGGCTAGGCCAGAGTAGGGACGGC , give the reported PBM binding z-score.
Ans. 1.16

Qu. For the sequence shown here, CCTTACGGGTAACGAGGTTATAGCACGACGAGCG , give the reported PBM binding z-score.
Ans. 0.837

Qu. For the sequence shown here, ATATGTAGGTTAACTGGGGTCATTCAGACTAGGC , give the reported PBM binding z-score.
Ans. 3.7

Qu. For the sequence shown here, TAGCCTAGGTCATACAGGGGCCAGTATAGAAAGC , give the reported PBM binding z-score.
Ans. 4.71

Qu. For the sequence shown here, CAAACGAGGTCACCGGAAGGTCAAAGTCCGCATG , give the reported PBM binding z-score.
Ans. 8.7

New cases:
Qu. For the sequence shown here, CGAACGAGGTCATGAGTTGATAGCAAATGCCGAT , give the reported PBM binding z-score.
Ans. 6.02

Qu. For the sequence shown here, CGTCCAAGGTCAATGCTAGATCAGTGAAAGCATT , give the reported PBM binding z-score.
Ans. 5.86

---

tested on: PPARg:RXRa 270nM:90nM, anti-RXR (NR concentration 270 nM, RXRa partner concentration 90 nM); assay: PBM binding z-score (relative to random genomic background probes); higher = stronger binding; sequences stand for … in GC…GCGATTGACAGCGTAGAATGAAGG
recorded-endpoint: PBM binding z-score

Sample answers from the record:
Qu. For the sequence shown here, CGAACAAGGTCATCCAGGACAGTGAATACATTGA , give the reported PBM binding z-score.
Ans. 6.17

Qu. For the sequence shown here, TTGCCAAGGTGAAAGGTCGTTGATGCACGCCTTG , give the reported PBM binding z-score.
Ans. 7.51

New cases:
Qu. For the sequence shown here, CAGCATAGGTCAGGGCCAGTATAGGAGGAACGTT , give the reported PBM binding z-score.
Ans. 1.98

Qu. For the sequence shown here, CGTCAAAGTTCAACTAAGGTTACGTAAAGCACGC , give the reported PBM binding z-score.
Ans. 5.55

Qu. For the sequence shown here, CGTCCAAGGACAATGCTAGGTCAGTGAAAGCATT , give the reported PBM binding z-score.
Ans. -0.429

Qu. For the sequence shown here, CTATGTAGGTTACGGGGGTCATTCAGTTTGAAAG , give the reported PBM binding z-score.
Ans. 7.81

Qu. For the sequence shown here, TATACAGGGTCAAAGGTCAGAGTACGAATGTCGA , give the reported PBM binding z-score.
Ans. 9.79

---

test system: LXRb:RXRa (NR concentration 270 nM, RXRa partner concentration 90 nM); test: PBM binding z-score (relative to random genomic background probes); higher = stronger binding; sequences stand for … in GC…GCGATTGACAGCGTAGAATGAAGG
Class membership depends on PBM binding z-score alone; the intervals are lower level (below 2), middle level (2 to below 4), upper level (4 or more)

Worked examples, 8 sequences total:
Qu. Place this sequence in its band: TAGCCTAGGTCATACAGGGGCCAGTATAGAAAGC
Ans. middle level

Qu. Place this sequence in its band: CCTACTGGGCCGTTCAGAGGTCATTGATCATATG
Ans. middle level

Qu. Place this sequence in its band: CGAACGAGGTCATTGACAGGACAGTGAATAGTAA
Ans. upper level

Qu. Place this sequence in its band: GCTTACGGGTCCAAGGTTATAGCATGAATAGAAT
Ans. lower level

Qu. Place this sequence in its band: TATTCAGGGTCAAAGGCCAGAGTACGAATGTCGA
Ans. upper level

Qu. Place this sequence in its band: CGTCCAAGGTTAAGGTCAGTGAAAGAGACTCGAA
Ans. middle level

Qu. Place this sequence in its band: GTTACAGGGTCAAGGCCAGAGTACGCGTATTGAT
Ans. middle level

Qu. Place this sequence in its band: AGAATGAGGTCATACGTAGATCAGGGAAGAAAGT
Ans. upper level

New cases:
Qu. Place this sequence in its band: CCTAGTTGTTCAGGAGGTCACACACCGGATATGA
Ans. middle level

Qu. Place this sequence in its band: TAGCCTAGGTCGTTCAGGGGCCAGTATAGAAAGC
Ans. lower level

Qu. Place this sequence in its band: CCGACTGGGGCAAGGTCACCATAACGCACAGCCA
Ans. middle level

Qu. Place this sequence in its band: AGAACGAGGTCACGCTGAGTTGATAGCAGAGTAG
Ans. upper level

Qu. Place this sequence in its band: TCTCGGAGGACACAAAGGTCAGAGCTTTCCAGAG
Ans. middle level

Qu. Place this sequence in its band: TTACCAAGGTGAACGGTCGTTGATGCACGCCTTG
Ans. lower level

Qu. Place this sequence in its band: AGTCAAAGTGCATCTAGGTAACGTAAGATATGCT
Ans. lower level
